Data provenance is ChEMBL document CHEMBL2380269.

- target.of.assay: Sodium-dependent dopamine transporter (Homo sapiens, UniProt Q01959)
- Sequence (Q01959 whole entry): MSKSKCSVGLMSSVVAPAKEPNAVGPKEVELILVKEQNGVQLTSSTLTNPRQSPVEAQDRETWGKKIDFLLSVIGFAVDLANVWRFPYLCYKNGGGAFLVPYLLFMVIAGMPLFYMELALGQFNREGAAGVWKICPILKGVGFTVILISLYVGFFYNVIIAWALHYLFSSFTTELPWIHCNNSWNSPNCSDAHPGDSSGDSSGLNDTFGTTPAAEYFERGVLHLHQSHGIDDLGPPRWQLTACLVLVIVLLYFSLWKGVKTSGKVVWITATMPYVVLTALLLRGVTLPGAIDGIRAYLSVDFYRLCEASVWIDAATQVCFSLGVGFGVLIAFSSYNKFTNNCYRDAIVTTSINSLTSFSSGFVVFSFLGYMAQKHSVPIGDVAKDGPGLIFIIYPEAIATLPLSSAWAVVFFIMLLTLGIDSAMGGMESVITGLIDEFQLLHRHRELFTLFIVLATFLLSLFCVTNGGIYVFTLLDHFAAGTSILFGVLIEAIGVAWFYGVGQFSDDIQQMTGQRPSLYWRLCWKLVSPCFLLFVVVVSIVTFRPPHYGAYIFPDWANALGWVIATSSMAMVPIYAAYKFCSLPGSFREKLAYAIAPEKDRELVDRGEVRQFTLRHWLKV
- assay.name: Displacement of [3H]WIN-35428 form human DAT expressed in HEK293 cell membranes at 1 uM
reported.endpoint: inhibition (%)

Observe how each entry below is paired with its result.
CNC[C@H]1CCC[C@H]1c1ccc2[nH]cc(C#N)c2c1 (racemic) | 53
CNC[C@@H]1CCC[C@H]1c1ccc2[nH]cc(C#N)c2c1 (racemic) | 49

A: CN(C)C[C@@H]1C[C@H]1c1ccc2[nH]cc(C#N)c2c1 (racemic)
B: CN(C)C[C@H]1CCC[C@H]1c1ccc2[nH]cc(C#N)c2c1 (racemic)
C: CN(C)C[C@H]1C[C@@H]1Cc1ccc2[nH]cc(C#N)c2c1 (racemic)
Exercise: Rank the items in ascending order with respect to inhibition. Output the labels ranked as instructed.
Solution: C, A, B

* * *

- target.of.assay: Sodium-dependent dopamine transporter (Homo sapiens, UniProt Q01959)
- assay.name: Displacement of [3H]WIN-35428 form human DAT expressed in HEK293 cell membranes
pIC50: −log10 of the molar value.
reported.endpoint: pIC50

CNC[C@H]1CCC[C@H]1c1ccc2[nH]cc(C#N)c2c1 (racemic) | 6.18
CNC[C@@H]1CCC[C@H]1c1ccc2[nH]cc(C#N)c2c1 (racemic) | 6.12

* * *

- target.of.assay: Sodium-dependent noradrenaline transporter (Homo sapiens, UniProt P23975)
- Sequence (P23975 whole entry): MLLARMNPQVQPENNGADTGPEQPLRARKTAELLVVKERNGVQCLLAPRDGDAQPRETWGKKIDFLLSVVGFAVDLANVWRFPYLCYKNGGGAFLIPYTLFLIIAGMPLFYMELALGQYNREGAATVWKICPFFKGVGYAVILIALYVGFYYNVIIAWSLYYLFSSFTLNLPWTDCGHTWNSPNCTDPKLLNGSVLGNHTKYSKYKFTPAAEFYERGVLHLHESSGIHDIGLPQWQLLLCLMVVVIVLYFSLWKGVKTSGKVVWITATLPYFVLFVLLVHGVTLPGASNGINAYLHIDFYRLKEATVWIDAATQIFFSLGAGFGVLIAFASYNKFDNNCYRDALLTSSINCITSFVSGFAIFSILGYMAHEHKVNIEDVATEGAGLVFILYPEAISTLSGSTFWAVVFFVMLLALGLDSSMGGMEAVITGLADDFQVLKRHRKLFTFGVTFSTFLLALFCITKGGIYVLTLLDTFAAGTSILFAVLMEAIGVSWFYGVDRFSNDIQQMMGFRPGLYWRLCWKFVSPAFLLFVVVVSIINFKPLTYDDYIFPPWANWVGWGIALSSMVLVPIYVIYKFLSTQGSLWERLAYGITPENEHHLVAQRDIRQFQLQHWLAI
- assay.name: Displacement of [3H]nisoxetine from human NET expressed in HEK293 cell membranes at 1 uM
reported.endpoint: inhibition (%)

// solved cases for inhibition follow
CN(C)C[C@H]1CCC[C@H]1c1ccc2[nH]cc(C#N)c2c1 (racemic) | 68
CNC[C@H]1CCC[C@H]1c1ccc2[nH]cc(C#N)c2c1 (racemic) | 78

A: CN(C)C[C@@H]1C[C@H]1c1ccc2[nH]cc(C#N)c2c1 (racemic)
B: CNC[C@@H]1CCC[C@H]1c1ccc2[nH]cc(C#N)c2c1 (racemic)
C: CN(C)C[C@@H]1CCC[C@H]1c1ccc2[nH]cc(C#N)c2c1 (racemic)
D: CN(C)C[C@H]1C[C@@H]1Cc1ccc2[nH]cc(C#N)c2c1 (racemic)
Exercise: Please list the entries, largest inhibition first. Reply format: the labels, ordered as requested.
Solution: A, D, B, C
(A: 55%, D: 25%, B: 16%, C: -1.7%)

* * *

- target.of.assay: Sodium-dependent serotonin transporter (Homo sapiens)
- Sequence (P31645 whole entry): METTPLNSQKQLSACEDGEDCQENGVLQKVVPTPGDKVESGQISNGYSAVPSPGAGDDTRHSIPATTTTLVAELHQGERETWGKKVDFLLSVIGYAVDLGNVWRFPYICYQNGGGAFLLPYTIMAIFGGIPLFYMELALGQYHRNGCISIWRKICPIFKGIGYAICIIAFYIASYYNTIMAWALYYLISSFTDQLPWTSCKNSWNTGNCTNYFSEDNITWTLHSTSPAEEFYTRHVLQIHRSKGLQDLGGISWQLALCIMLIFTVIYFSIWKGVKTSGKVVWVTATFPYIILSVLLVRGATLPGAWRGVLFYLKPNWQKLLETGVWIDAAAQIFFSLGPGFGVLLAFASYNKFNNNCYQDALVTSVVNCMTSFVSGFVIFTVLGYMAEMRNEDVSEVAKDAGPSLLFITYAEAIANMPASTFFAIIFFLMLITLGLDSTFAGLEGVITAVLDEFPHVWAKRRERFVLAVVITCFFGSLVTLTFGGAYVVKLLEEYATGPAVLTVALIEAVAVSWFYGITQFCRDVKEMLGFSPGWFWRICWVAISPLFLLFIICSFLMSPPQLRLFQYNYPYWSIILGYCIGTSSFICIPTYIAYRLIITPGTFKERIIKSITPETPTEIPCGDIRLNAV
- assay.name: Displacement of [3H]citalopram from human SERT expressed in HEK293 cell membranes
pIC50: −log10 of the molar value.
reported.endpoint: pIC50

Solved entries (count: 3):
CCN(C)C[C@@H]1CCC[C@H]1c1ccc2[nH]cc(C#N)c2c1 (racemic) | 6.70
CN(C)C[C@H]1C[C@@H]1c1c[nH]c2ccc(C#N)cc12 | 9.25
CNC[C@H]1CCC[C@H]1c1ccc2[nH]cc(C#N)c2c1 (racemic) | 7.19

1: CCN(CC)C[C@@H]1CCC[C@H]1c1ccc2[nH]cc(C#N)c2c1 (racemic)
2: CCNC[C@@H]1CCC[C@H]1c1ccc2[nH]cc(C#N)c2c1 (racemic)
Exercise: Field: lower pIC50 | Options: 1 / 2 // return label of chosen record
Solution: 1

* * *

- target.of.assay: Sodium-dependent noradrenaline transporter (Homo sapiens, UniProt P23975)
- assay.name: Displacement of [3H]nisoxetine from human NET expressed in HEK293 cell membranes
reported.endpoint: IC50 (µM)

1: CN(C)C[C@@H]1CCC[C@H]1c1ccc2[nH]cc(C#N)c2c1 (racemic)
2: CNC[C@H]1CCC[C@H]1c1ccc2[nH]cc(C#N)c2c1 (racemic)
3: CNC[C@@H]1CCC[C@H]1c1ccc2[nH]cc(C#N)c2c1 (racemic)
Exercise: Rank by IC50 (largest to smallest). Reply with the labels, ordered as the question asks.
Solution: 1, 3, 2
(1: 8.2 µM, 3: 3.7 µM, 2: 0.51 µM)
